Ref: PubChem BioAssay (EPA / NIEHS)

Experiment: ATG_CRE_CIS: Attagene CIS-FACTORIAL HepG2 Assay for human cAMP Responsive Element (CRE) binding protein 3 (AID 2282926)
Conditions: HepG2 CRE cis-reporter, Attagene multiplexed mRNA; actives raise or lower the signal
Activity calls are given as the source filed them. The calls were made as follows: active = hit-call score of the fitted dose curve at least 0.9, where 1 is the maximum; inactive = score below 0.9.
Use one of these outcomes when replying: 1.0 for active, 0.0 for inactive

Illustrative cases are given below, each with its answer.
{"molecule": "O=CN1CCOCC1", "assigned category": 0.0}
{"molecule": "O=C(Nc1ccc2c(c1)Cc1ccccc1-2)C(F)(F)F", "assigned category": 0.0}
{"molecule": "CN(C)c1ccncc1", "assigned category": 0.0}
{"molecule": "OCc1cccc(Oc2ccccc2)c1", "assigned category": 0.0}
{"molecule": "CC(C)(C)c1ccc(C(=O)O)cc1", "assigned category": 0.0}
{"molecule": "CCCSc1ccc2nc(NC(=O)OC)[nH]c2c1", "assigned category": 0.0}
{"molecule": "Nc1ccc(NCCO)c([N+](=O)[O-])c1", "assigned category": 0.0}
{"molecule": "CC1=NN(c2ccc(S(=O)(=O)O)cc2)C(=O)C1", "assigned category": 0.0}

Q: Which outcome was entered for the molecule CCOC(=O)CC(C)O (stereo not given) in this test?
Ans: 0.0

Q: Which outcome was entered for the molecule "CCOC(=O)C(C#N)=C(c1ccccc1)c1ccccc1" in this test?
Ans: 1.0

Q: Which outcome was entered for the molecule CCOc1ccc(NC(=O)CC(C)O)cc1 (stereo not given) in this test?
Ans: 0.0

Q: Which outcome was entered for the molecule "CCCC[O][Al]([O]CCCC)[O]CCCC" in this test?
Ans: 0.0

Q: Which outcome was entered for the molecule "CCCC(=O)OC(C)(C)Cc1ccccc1" in this test?
Ans: 0.0

Q: Which outcome was entered for the molecule "NCCNc1cccc2ccccc12" in this test?
Ans: 1.0

Q: Which outcome was entered for the molecule "CN(C)C(=S)SC(=S)N(C)C" in this test?
Ans: 0.0

Q: Which outcome was entered for the molecule CCC1(C)NC(=O)NC1=O (stereo not given) in this test?
Ans: 0.0

Q: Which outcome was entered for the molecule "C=CCCCCCCCCCC" in this test?
Ans: 0.0

Q: Which outcome was entered for the molecule CCCCCCCC(=O)OCC(O)CO (stereo not given) in this test?
Ans: 0.0

Q: Which outcome was entered for the molecule NC1CCCCC1N (stereo not given) in this test?
Ans: 0.0

Q: Which outcome was entered for the molecule CCCCC(CC)C(=O)OC(C)C (stereo not given) in this test?
Ans: 0.0

Q: Which outcome was entered for the molecule "CCOc1ccc(N=Nc2ccc(C=Cc3ccc(N=Nc4ccc(OCC)cc4)cc3S(=O)(=O)O)c(S(=O)(=O)O)c2)cc1" in this test?
Ans: 0.0

Q: Which outcome was entered for the molecule "CN(C)CCOc1ccc(/C(=C(/CCCl)c2ccccc2)c2ccccc2)cc1" in this test?
Ans: 0.0

Q: Which outcome was entered for the molecule "CCCCSCCCC" in this test?
Ans: 0.0

Q: Which outcome was entered for the molecule "CC(C)(C)C1=CC(=O)C(C(C)(C)C)=CC1=O" in this test?
Ans: 0.0

Q: Which outcome was entered for the molecule "O=c1c(O)c(-c2ccc(O)cc2)oc2cc(O)cc(O)c12" in this test?
Ans: 0.0

Q: Which outcome was entered for the molecule "O=C1CCCC=CCCCCCCCCCC1" in this test?
Ans: 0.0

Q: Which outcome was entered for the molecule "COS(=O)(=O)O" in this test?
Ans: 0.0

Q: Which outcome was entered for the molecule "O=C1OC[C@H](Cc2cccc(O)c2)[C@H]1Cc1cccc(O)c1" in this test?
Ans: 0.0

Q: Which outcome was entered for the molecule "CN(C)c1cccc(O)c1" in this test?
Ans: 0.0

Q: Which outcome was entered for the molecule Cc1c(OCC(F)(F)F)ccnc1CS(=O)c1nc2ccccc2[nH]1 (stereo not given) in this test?
Ans: 0.0

###

Assay: ATG_RORE_CIS: Attagene CIS-FACTORIAL HepG2 Assay for human RAR-related Orphan Receptor Element (RORE) (AID 2282959)
Details: HepG2 Attagene cis-factorial RORE reporter, mRNA; actives raise or lower the signal
The source made the active and inactive calls. The calls were made as follows: active = hit-call score of the fitted dose curve at least 0.9, where 1 is the maximum; inactive = score below 0.9.
Use one of these outcomes when replying: active, inactive

Illustrative cases are given below, each with its answer.
{"compound": "CC(=O)O[C@@H]1C[C@@H]2CC[C@@]1(C)C2(C)C", "assigned category": "inactive"}
{"compound": "COC(=O)c1ccc(C)cc1C1=NC(C)(C(C)C)C(=O)N1 (configuration not stated) (tested in a mixture with another compound)", "assigned category": "inactive"}
{"compound": "O=C1c2ccccc2C(=O)c2c(O)ccc(O)c21", "assigned category": "inactive"}
{"compound": "C=C(C)C(=O)OCCOC1CC2CC1C1C=CCC21 (configuration not stated)", "assigned category": "inactive"}
{"compound": "CCC1(c2ccccc2)C(=O)NCNC1=O", "assigned category": "inactive"}

Q: Which outcome was entered for the compound "Nc1c(S(=O)(=O)O)cc(Br)c2c1C(=O)c1ccccc1C2=O" in this test?
Ans: active

###

Experiment: ATG_Oct_MLP_CIS: Attagene CIS-FACTORIAL HepG2 Assay for human Octamer-Binding Transcription Factor (Oct) (AID 2282993)
Settings: HepG2 Attagene cis-factorial Oct reporter, mRNA; actives raise or lower the signal
Activity calls are given as the source filed them. The calls were made as follows: active = hit-call score of the fitted dose curve at least 0.9, where 1 is the maximum; inactive = score below 0.9.
measure name: AC50

Worked cases, AC50 given:
{"compound": "CCCC(C)C(O)CC (stereo not given)", "value": "inactive"}
{"compound": "COc1ccccc1[N+](=O)[O-]", "value": "inactive"}
{"compound": "C=CC(=O)OCCC#N", "value": "44.1 µM (active)"}
{"compound": "CCCCCCCCCCCC(=O)OC[C@@H](O)[C@H]1OC[C@H](O)[C@H]1O", "value": "inactive"}

Each compound below has a recorded value; state its AC50.
1. CCCCCCC(=O)c1ccccc1
2. C=CCCC(=O)/C=C/C1C(C)=CCCC1(C)C (stereo not given)
3. CC(C)=CCCC(C)CC(=O)O (stereo not given)
4. CCC(C)S (stereo not given)

Ans:
["inactive", "inactive", "inactive", "inactive"]

Each compound below has a recorded value; state its AC50.
1. CCCCN(CCCC)C(=O)N(CCCC)CCCC
2. O=C(O)CNc1ccccc1
3. BrCc1cccc(Oc2ccccc2)c1
4. O=C(Nc1ccc2c(O)c(N=Nc3ccc(N=Nc4ccc(S(=O)(=O)O)cc4)cc3)c(S(=O)(=O)O)cc2c1)c1ccccc1
5. OC[C@H]1O[C@@H]2O[C@H]3[C@H](O)[C@@H](O)[C@@H](O[C@H]4[C@H](O)[C@@H](O)[C@@H](O[C@H]5[C@H](O)[C@@H](O)[C@@H](O[C@H]6[C@H](O)[C@@H](O)[C@@H](O[C@H]7[C@H](O)[C@@H](O)[C@@H](O[C@H]8[C@H](O)[C@@H](O)[C@@H](O[C@H]9[C@H](O)[C@@H](O)[C@@H](O[C@H]1[C@H](O)[C@H]2O)O[C@@H]9CO)O[C@@H]8CO)O[C@@H]7CO)O[C@@H]6CO)O[C@@H]5CO)O[C@@H]4CO)O[C@@H]3CO
6. CCCCCCCCC=CCCCCCCCC1=NCCN1CCO

Ans:
1: inactive; 2: inactive; 3: inactive; 4: inactive; 5: inactive; 6: inactive

Each compound below has a recorded value; state its AC50.
1. Oc1ccc2cc(SSc3ccc4cc(O)ccc4c3)ccc2c1
2. CN(C)C(=O)Nc1ccc(Oc2ccc(Cl)cc2)cc1
3. COc1ccc(CCC(C)=O)cc1

Ans:
1: 39.9 µM (active); 2: inactive; 3: inactive

Each compound below has a recorded value; state its AC50.
1. Cc1ccc2c(c1)C(=O)OC2=O
2. C=Cc1ccc(C)cc1
3. CS(C)=O
4. CCCCCCCCCC(=O)OC
5. Nc1ccc(Cl)c([N+](=O)[O-])c1
6. C=Cc1ccncc1

Ans:
1: inactive; 2: inactive; 3: inactive; 4: inactive; 5: inactive; 6: 26.8 µM (active)

###

Read-out: Urokinase-type plasminogen activator receptor (uPAR), PLAUR (gene 5329)
Test: BSK_4H_uPAR: BioMAP Diversity Plus: 4H Assay for Urokinase-type plasminogen activator receptor (uPAR) Biomarker Activity (AID 2283030)
Conditions: primary human endothelial cells (HUVEC); actives raise or lower the signal
Activity calls are given as the source filed them. How the source made its calls: active means hit-call score of the fitted dose curve at least 0.9, where 1 is the maximum; inactive means score below 0.9.
Use one of these outcomes when replying: class 1 (active), class 0 (inactive)

{"compound": "CC(=O)C1(C)CC2=C(CCCC2(C)C)CC1C (configuration not stated)", "assigned category": "class 1"}
{"compound": "CCCCCC(C=O)=Cc1ccccc1", "assigned category": "class 1"}
{"compound": "c1ccc(CCc2ccccc2)cc1", "assigned category": "class 1"}

Q: Which outcome was entered for the compound "CCCCN(CCCC)C(=O)N(CCCC)CCCC" in this test?
Ans: class 1

Q: Which outcome was entered for the compound "CS(=O)(=O)c1ccc(C2=C(c3ccccc3)C(=O)OC2)cc1" in this test?
Ans: class 0

Q: Which outcome was entered for the compound "Cc1cc(CCC(=O)OCCOCCOCCOC(=O)CCc2cc(C)c(O)c(C(C)(C)C)c2)cc(C(C)(C)C)c1O" in this test?
Ans: class 0

Q: Which outcome was entered for the compound CCCCCCC(CO)CCCC (configuration not stated) in this test?
Ans: class 0

Q: Which outcome was entered for the compound "CCN(CC)C(=O)N(CC)CC" in this test?
Ans: class 0
